Tested on: CAL-148 (Breast Carcinoma)
Run description: combination Emax (second highest fraction inhibited in the dose matrix, 72 h); higher = more inhibition; extreme values may be limits of the assay

| Compound | combination Emax |
| --- | --- |
| Cn1cnc2c(F)c(Nc3ccc(Br)cc3Cl)c(C(=O)NOCCO)cc21 [Selumetinib] + C[C@@H]1COCCN1C2=NC(=NC(=C2)C3(CC3)[S@](=N)(=O)C)C4=C5C=CNC5=NC=C4 [AZD6738] (first compound max 10 µM, 7x7, partner max 10 µM) | 0.825 |
| CC1(C)CCC(CN2CCN(c3ccc(C(=O)NS(=O)(=O)c4ccc(NCC5CCOCC5)c([N+](=O)[O-])c4)c(Oc4cnc5[nH]ccc5c4)c3)CC2)=C(c2ccc(Cl)cc2)C1 [Venetoclax] + C=CCn1c(=O)c2cnc(Nc3ccc(N4CCN(C)CC4)cc3)nc2n1-c1cccc(C(C)(C)O)n1 [AZD1775] (first compound max 1 µM, partner max 1 µM) | 0.952 |
| NC1(C(=O)N[C@@H](CCO)c2ccc(Cl)cc2)CCN(c2ncnc3[nH]ccc23)CC1 [Capivasertib] + C[C@@H]1COCCN1C2=NC(=NC(=C2)C3(CC3)[S@](=N)(=O)C)C4=C5C=CNC5=NC=C4 [AZD6738] (first compound max 10 µM, 7x7, partner max 10 µM) | 0.986 |
| O=C(c1cc(Cc2n[nH]c(=O)c3ccccc23)ccc1F)N1CCN(C(=O)C2CC2)CC1 [Olaparib] + Cc1c2c(nn1C)CSCc1cc(n(C)n1)CSc1cc(c3ccccc3c1)OCCCc1c(C(=O)O)n(C)c3c-2c(Cl)ccc13 [AZD5991] (first compound max 10 µM, 7x7, partner max 1 µM) | 0.635 |
| Cc1nc(-c2cn3c(n2)-c2ccc(-c4cnn(C(C)(C)C(N)=O)c4)cc2OCC3)n(C(C)C)n1 [Taselisib] + O=C(Nc1ccc2[nH]nc(-c3ccncc3)c2c1)[C@@H]1CCN(CC(=O)N2CCN(c3ccc(-c4ncccn4)cc3)CC2)C1 [SCH772984] (first compound max 10 µM, 7x7, partner max 5 µM) | 0.964 |
| NC1(C(=O)N[C@@H](CCO)c2ccc(Cl)cc2)CCN(c2ncnc3[nH]ccc23)CC1 [Capivasertib] + COc1nnc2ccc(N3CCC(c4ccc(OCCN5CCN(C)C(=O)[C@H]5C)cc4)CC3)nn12 [AZD5153] (first compound max 10 µM, 7x7, partner max 1 µM) | 1 |
| C=CCn1c(=O)c2cnc(Nc3ccc(N4CCN(C)CC4)cc3)nc2n1-c1cccc(C(C)(C)O)n1 [AZD1775] + CCc1c2c(nc3ccc(O)cc13)-c1cc3c(c(=O)n1C2)COC(=O)[C@]3(O)CC [SN-38] (first compound max 1 µM, partner max 0.3 µM) | 0.974 |
| C[C@@H]1COCCN1c1cc(C2([S@](C)(=N)=O)CC2)nc(-c2ccnc3[nH]ccc23)n1 [AZD6738] + Nc1ccn([C@@H]2O[C@H](CO)[C@@H](O)C2(F)F)c(=O)n1 [Gemcitabine] (first compound max 10 µM, 7x7, partner max 0.3 µM) | 1 |
| CC1(C)CCC(CN2CCN(c3ccc(C(=O)NS(=O)(=O)c4ccc(NCC5CCOCC5)c([N+](=O)[O-])c4)c(Oc4cnc5[nH]ccc5c4)c3)CC2)=C(c2ccc(Cl)cc2)C1 [Venetoclax] + C[C@@H]1COCCN1C2=NC(=NC(=C2)C3(CC3)[S@](=N)(=O)C)C4=C5C=CNC5=NC=C4 [AZD6738] (first compound max 1 µM, 7x7, partner max 10 µM) | 0.888 |
| CC1(C)CCC(CN2CCN(c3ccc(C(=O)NS(=O)(=O)c4ccc(NCC5CCOCC5)c([N+](=O)[O-])c4)c(Oc4cnc5[nH]ccc5c4)c3)CC2)=C(c2ccc(Cl)cc2)C1 [Venetoclax] + Cc1cc2ncnn2cc1Nc1ncc2c(n1)n(C1CCOCC1)c(=O)n2C [AZD7648] (first compound max 1 µM, 7x7, partner max 10 µM) | 0.447 |
| Cn1cnc2c(F)c(Nc3ccc(Br)cc3Cl)c(C(=O)NOCCO)cc21 [Selumetinib] + CCN(CCO)CCCOc1ccc2c(Nc3cc(CC(=O)Nc4cccc(F)c4)[nH]n3)ncnc2c1 [AZD2811] (first compound max 10 µM, 7x7, partner max 1 µM) | 0.927 |
| Cc1c2c(nn1C)CSCc1cc(n(C)n1)CSc1cc(c3ccccc3c1)OCCCc1c(C(=O)O)n(C)c3c-2c(Cl)ccc13 [AZD5991] + CN(C)CCCOc1ccc(-c2ccc3ncc4c(c3c2)n(C2CCOCC2)c(=O)n4C)cn1 [AZD0156] (first compound max 1 µM, 7x7, partner max 1 µM) | 0.417 |
| Cc1cc2ncnn2cc1Nc1ncc2c(n1)n(C1CCOCC1)c(=O)n2C [AZD7648] + CCN(CCO)CCCOc1ccc2c(Nc3cc(CC(=O)Nc4cccc(F)c4)[nH]n3)ncnc2c1 [AZD2811] (first compound max 10 µM, 7x7, partner max 1 µM) | 0.911 |
